testedTarget: DRD2 F1103.28L (Homo sapiens, UniProt P14416, F110L)
Construct: expressed in transfected cells; host or cells: HEK293T (ATCC CRL-11268)
Sequence (P14416 whole entry F110L): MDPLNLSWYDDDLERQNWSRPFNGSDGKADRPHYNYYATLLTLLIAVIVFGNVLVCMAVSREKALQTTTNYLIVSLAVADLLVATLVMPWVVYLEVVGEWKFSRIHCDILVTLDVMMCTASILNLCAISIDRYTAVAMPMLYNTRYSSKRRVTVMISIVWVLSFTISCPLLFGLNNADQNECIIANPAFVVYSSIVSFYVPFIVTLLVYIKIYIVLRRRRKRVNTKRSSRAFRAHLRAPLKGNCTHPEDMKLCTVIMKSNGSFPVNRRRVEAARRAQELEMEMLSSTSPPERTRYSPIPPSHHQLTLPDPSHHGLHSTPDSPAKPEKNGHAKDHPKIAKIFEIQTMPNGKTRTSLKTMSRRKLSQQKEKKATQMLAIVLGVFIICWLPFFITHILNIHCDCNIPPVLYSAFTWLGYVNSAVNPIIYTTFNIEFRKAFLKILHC
procedureSummary: β-arrestin2 recruitment (Tango), mutant
Format: cell-based
Kindly supply the reported EC50 values for the records listed here.
Numbers only, in nM.

Field: example entries. Status: answers known.
CCOc1cccc2cc(C(C)NCC3(O)CCCCCC3)oc12 (centres unmarked)	504
CCOc1cccc2cc(C(C)NCC3(O)CCCCC3)oc12 (centres unmarked)	204

Look up EC50 for the entries below, preserving their order.
1. CCOc1cccc2cc(C(C)NCC3(O)CCCCCCC3)oc12 (centres unmarked)
2. CCOc1cccc2cc([C@@H](C)NCC3(O)CCCCC3)oc12

1: 83.2; 2: 215

====

testedTarget: DRD2 (D2 long receptor) (Homo sapiens, UniProt P14416)
Sequence (P14416 whole entry): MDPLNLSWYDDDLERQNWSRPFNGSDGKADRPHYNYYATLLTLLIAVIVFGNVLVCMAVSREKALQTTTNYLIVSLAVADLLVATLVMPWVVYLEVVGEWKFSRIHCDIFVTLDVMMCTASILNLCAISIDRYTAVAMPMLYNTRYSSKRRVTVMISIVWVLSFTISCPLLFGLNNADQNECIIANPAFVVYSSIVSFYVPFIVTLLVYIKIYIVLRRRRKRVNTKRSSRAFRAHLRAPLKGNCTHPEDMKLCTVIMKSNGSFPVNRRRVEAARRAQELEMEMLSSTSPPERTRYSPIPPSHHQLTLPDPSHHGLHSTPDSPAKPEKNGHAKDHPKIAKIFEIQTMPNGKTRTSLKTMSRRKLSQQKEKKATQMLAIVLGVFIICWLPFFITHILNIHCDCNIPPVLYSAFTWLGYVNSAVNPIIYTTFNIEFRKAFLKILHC
procedureSummary: Gαi/o-mediated cAMP inhibition (GloSensor split-luciferase cAMP reporter), HEK293T
Type: cell-based
measuredProperty: EC50 (nM)
Numbers only, in nM.

State, in one line, measured EC50 of CC(CCc1ccccc1[N+](=O)[O-])NCC1(O)CCCCC1 (stereo not shown) [O7LE6]
1.13

====

testedTarget: DRD2 (D2 long receptor) (Homo sapiens, UniProt P14416)
procedureSummary: Gαi/o-mediated cAMP inhibition (GloSensor split-luciferase cAMP reporter), HEK293T;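 note: compounds applied 15 min at room temperature, then luciferin plus 400 nM isoproterenol to raise cAMP through endogenous β2-adrenergic receptors, luminescence read 15 min later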
Format: cell-based
conditionSet: DRD2; agonist, Gαi/o-mediated cAMP inhibition; read-out: EC50 ± SEM
With a cut-off of 20 nM, any EC50 strictly below it is called Condition met; any EC50 meeting it or above is called Condition not met.

# count of solved cases: 4
CCOc1cccc2cc(C(C)NCC3(O)CCCCCCC3)oc12 (stereo not shown)	Condition not met
CCOc1cccc2cc(C(C)NCCO)oc12 (stereo not shown)	Condition not met
CCOc1cccc2cc(C(C)NCC(C)(C)O)oc12 (racemic)	Condition not met
CC(NCC1(O)CCCCC1)c1cc2cccc(O)c2o1.Cl (stereo not shown)	Condition not met

Report whether reported EC50 is lower than 20 nM (strictly) for CCOc1cccc2cc([C@H](C)NCC3(O)CCCCC3)oc12
Condition met

Report whether reported EC50 is lower than 20 nM (strictly) for COc1cccc2cc(C(C)NCC3(O)CCCCC3)oc12.Cl (stereo not shown)
Condition met

Report whether reported EC50 is lower than 20 nM (strictly) for CCOc1cccc2cc(C(C)NCC3(O)CCC3)oc12.Cl (stereo not shown)
Condition not met

Report whether reported EC50 is lower than 20 nM (strictly) for CCOc1cccc2cc(C(C)NCC3(O)CCCCCC3)oc12 (stereo not shown)
Condition met

Report whether reported EC50 is lower than 20 nM (strictly) for CCCCOc1cccc2cc(C(C)NCC3(O)CCCCC3)oc12.Cl (stereo not shown)
Condition not met

====

Kindly supply the reported response, Fig_S11e dose-response source data values for the records listed here.
testedTarget: DRD2 (D2 long receptor) (Homo sapiens, UniProt P14416)
procedureSummary: β-arrestin2 recruitment (Tango), HTLA cells; note: reference of the scale not given here
Assay type: cell-based
conditionSet: Fig_S11e; Log[Drug] -6.52; replicate values
Answers are plain numbers.

Field: example entries. Status: answers known.
CCOc1cccc2cc(C(C)NCC3(O)CCCCC3)oc12 (centres unmarked) [O4LE6]	78.7922
CCOc1cccc2cc(C(C)NCC3(O)CCCC3)oc12.Cl (racemic) [O4LE5]	29.7819
CCOc1cccc2cc(C(C)NCC3(O)CCCCCCC3)oc12 (centres unmarked) [O4LE8]	25.1709

Look up response, Fig_S11e dose-response source data for the entries below, preserving their order.
1. CCOc1cccc2cc(C(C)NCC3(O)CCCCCC3)oc12 (centres unmarked) [O4LE7]
2. CCOc1cccc2cc(C(C)NCC3(O)CCC3)oc12.Cl (centres unmarked) [O4LE4]

[70.7144, 6.042]
